Source listed as patent US10597390B2.

- ASSAY_NAME: in vitro
- MEASUREMENT_PARAMETERS: dog, TOX MDCK CC50
PROPERTY_LABEL: CC50 at 3 days (µM)
Write the answer as a number in µM, unit excluded.

Give the measured CC50 at 3 days of "O=C(N[C@@H]1CCC[C@H](Nc2nc(-c3c[nH]c4c(F)cc(F)cc34)ncc2F)C1)c1cn(CCO)cn1" . 11.5

Give the measured CC50 at 3 days of "O=C(N[C@@H]1CCC[C@H](Nc2nc(-c3c[nH]c4c(F)cc(Cl)cc34)ncc2F)C1)c1ccsc1" . 2.4

With those in mind, consider the next compound.
Give the measured CC50 at 3 days of "O=C(N[C@@H]1CCC[C@H](Nc2nc(-c3c[nH]c4c(F)cc(F)cc34)ncc2F)C1)[C@H]1CCCN1" . 10.3

====

In this section, each of the compounds is paired with its reported melting point.
Write the answer as a number in °C, unit excluded.

Give the measured melting point of O=C(N[C@@H]1CCC[C@H](Nc2nc(-c3c[nH]c4c(F)cc(F)cc34)ncc2F)C1)c1c[nH]nn1 [Compound 111] . 265

Give the measured melting point of O=C(N[C@@H]1CCC[C@H](Nc2nc(-c3c[nH]c4c(F)cc(F)cc34)ncc2F)C1)c1nccs1 [Compound 109] . 277

Give the measured melting point of O=C(N[C@@H]1CCC[C@H](Nc2nc(-c3c[nH]c4c(F)cc(Cl)cc34)ncc2F)C1)c1ncccn1 [Compound 46] . 286.8

Give the measured melting point of Cc1cc(F)c2[nH]cc(-c3ncc(F)c(N[C@@H]4CCC[C@H](NC(=O)c5ccccn5)C4)n3)c2c1 (racemic) [Compound 21] . 208

Give the measured melting point of Cc1c[nH]c(C(=O)N[C@@H]2CCC[C@H](Nc3nc(-c4c[nH]c5c(F)cc(Cl)cc45)ncc3F)C2)n1 [Compound 71] . 276.8

Give the measured melting point of Cc1cc(F)c2[nH]cc(-c3ncc(F)c(N[C@@H]4CCC[C@@H](NC(=O)N5CCCC5)C4)n3)c2c1 (racemic) [Compound 20] . 94

Give the measured melting point of Cn1ccc(C(=O)N[C@@H]2CCC[C@@H](Nc3nc(-c4c[nH]c5c(F)cc(F)cc45)c(C#N)cc3F)C2)n1 (racemic) [Compound 205] . 103

Give the measured melting point of Cn1cnc(C(=O)N[C@@H]2CCC[C@H](Nc3nc(-c4c[nH]c5c(F)cc(C(F)(F)F)cc45)ncc3F)C2)c1 (racemic) [Compound 264] . 266.5

Next:
Give the measured melting point of Cc1cc(C(=O)N[C@@H]2CCC[C@H](Nc3nc(-c4c[nH]c5c(F)cc(F)cc45)ncc3F)C2)n(C)n1 [Compound 116] . 279

Give the measured melting point of Cn1cncc1C(=O)N[C@@H]1CCC[C@H](Nc2nc(-c3c[nH]c4c(F)cc(Cl)cc34)ncc2F)C1 [Compound 64] . 291.8

Give the measured melting point of Cn1ccc(C(C)(C)C(CC(=O)O)Nc2nc(-c3c[nH]c4c(F)cc(F)cc34)c(C#N)cc2F)n1 (centres unmarked) [Compound 236] . 246.9

====

- ASSAY_NAME: in vitro
- MEASUREMENT_PARAMETERS: dog, TOX MDCK CC50
PROPERTY_LABEL: CC50 at 3 days (µM)
Write the answer as a number in µM, unit excluded.

Before answering, review these 3 worked examples.
Give the measured CC50 at 3 days of "Cn1cnc(C(=O)N[C@@H]2CCC[C@H](Nc3nc(-c4c[nH]c5c(F)cc(Cl)cc45)ncc3F)C2)c1" . 7.9

Give the measured CC50 at 3 days of Cc1cc(F)c2[nH]cc(-c3ncc(F)c(N[C@H]4C5CCC(CC5)[C@@H]4C(=O)O)n3)c2c1 [Compound 166] . 1

Give the measured CC50 at 3 days of "Nc1cccc(C(=O)N[C@@H]2CCC[C@H](Nc3nc(-c4c[nH]c5c(F)cc(F)cc45)ncc3F)C2)n1" . 10.3

With those in mind, consider the next molecule.
Give the measured CC50 at 3 days of "Nc1nc(C(=O)N[C@@H]2CCC[C@H](Nc3nc(-c4c[nH]c5c(F)cc(Cl)cc45)ncc3F)C2)cs1" . 2.5
